Each recorded value in this set is attributed to ChEMBL document CHEMBL4513216.

Quick list: INHIBITION per entry.
# Test system: Plasmodium berghei
# METHOD SUMMARY: Screen against P. berghei liver stage (PbLuc), transformed with Luciferase, at 10uM
# Format: functional, HepG2
# RECORDED CONDITIONS: tested at 10 uM
The whole screen tested about 69,000 compounds, of which about 8,600 (12%) showed an effect of 50% or more. Shown is part of a subset that was picked to be rich in strong results.
METRIC NAME: INHIBITION (%)

[[record]]
compound = "COC(=O)N1CCN(c2ncnc3nc(C)cc(C)c23)CC1"
meas_value = 20

[[record]]
compound = "CNC(=O)CCc1cc(C)nc(C2CCN(C3CCCCC3)CC2)c1"
meas_value = 15.58

[[record]]
compound = "CCCN(Cc1ccccn1)Cc1ccccc1OC"
meas_value = 45.2

[[record]]
compound = "CCCN(Cc1nc2ccccc2[nH]1)Cc1ccccc1OC"
meas_value = 82.3

[[record]]
compound = "COc1ccc(OCC(=O)NS(=O)(=O)c2ccc(Cl)s2)cc1"
meas_value = 17.7

[[record]]
compound = "CC1=Nc2c(c(=O)[nH]n2C(C)C)C(c2ccc3c(c2)OCCO3)S1 (stereo unspecified)"
meas_value = -14.1

[[record]]
compound = "CC(C)c1nc(C2CCCN2CC(=O)Nc2cccnc2)no1 (stereo unspecified)"
meas_value = -17.6

[[record]]
compound = "Cc1nc(C(Cc2ccsc2)NC(=O)CN2CCOCC2)sc1C (stereo unspecified)"
meas_value = 30.45

[[record]]
compound = "CCCc1cc(C(=O)Nc2nc(SC)ns2)n(C)n1"
meas_value = -106.9

[[record]]
compound = "CNC(=O)c1ccc(CN(C(=O)c2scnc2C)C2CC2)cc1"
meas_value = 6.92

[[record]]
compound = "CC1=Nc2c(c(=O)[nH]n2C(C)C)C(c2ccc3nccnc3c2)S1 (stereo unspecified)"
meas_value = 58.5


###

# System: Plasmodium berghei
# METHOD SUMMARY: Screen against P. berghei liver stage (PbLuc), transformed with Luciferase, at 10uM
# Assay type: functional, HepG2
# RECORDED CONDITIONS: tested at 10 uM
The whole screen tested about 69,000 compounds, of which about 8,600 (12%) showed an effect of 50% or more. This excerpt belongs to a sample that is enriched for strong results.
METRIC NAME: INHIBITION (%)

[[record]]
compound = "Cc1cnc(C(=O)N2CCCC(n3nc(C)nc3C)C2)cn1 (stereo not given)"
system = "Plasmodium berghei"
metric_name = "INHIBITION"
unit_abbreviation = "%"
meas_value = 7.12

[[record]]
compound = "CC(C)Cn1c(=O)[nH]c2cn(-c3ccc(F)cc3)c(=O)n21"
system = "Plasmodium berghei"
metric_name = "INHIBITION"
unit_abbreviation = "%"
meas_value = 11.4

[[record]]
compound = "Cc1nc(C)n(C2CCCN(C(=O)c3cscn3)C2)n1 (stereo not given)"
system = "Plasmodium berghei"
metric_name = "INHIBITION"
unit_abbreviation = "%"
meas_value = 60.2

[[record]]
compound = "Cc1cc(C)n(C2CCCN(C(=O)c3csc(C4CC4)n3)C2)n1 (stereo not given)"
system = "Plasmodium berghei"
metric_name = "INHIBITION"
unit_abbreviation = "%"
meas_value = 34.7

[[record]]
compound = "Cc1nc(C)n(C2CCCN(C(=O)c3csnn3)C2)n1 (stereo not given)"
system = "Plasmodium berghei"
metric_name = "INHIBITION"
unit_abbreviation = "%"
meas_value = 11.6

